All figures here come from patent US12281122B1.

test target: PI3Kα H1047R (Homo sapiens, UniProt P42336, H1047R)
Sequence (P42336 whole entry H1047R): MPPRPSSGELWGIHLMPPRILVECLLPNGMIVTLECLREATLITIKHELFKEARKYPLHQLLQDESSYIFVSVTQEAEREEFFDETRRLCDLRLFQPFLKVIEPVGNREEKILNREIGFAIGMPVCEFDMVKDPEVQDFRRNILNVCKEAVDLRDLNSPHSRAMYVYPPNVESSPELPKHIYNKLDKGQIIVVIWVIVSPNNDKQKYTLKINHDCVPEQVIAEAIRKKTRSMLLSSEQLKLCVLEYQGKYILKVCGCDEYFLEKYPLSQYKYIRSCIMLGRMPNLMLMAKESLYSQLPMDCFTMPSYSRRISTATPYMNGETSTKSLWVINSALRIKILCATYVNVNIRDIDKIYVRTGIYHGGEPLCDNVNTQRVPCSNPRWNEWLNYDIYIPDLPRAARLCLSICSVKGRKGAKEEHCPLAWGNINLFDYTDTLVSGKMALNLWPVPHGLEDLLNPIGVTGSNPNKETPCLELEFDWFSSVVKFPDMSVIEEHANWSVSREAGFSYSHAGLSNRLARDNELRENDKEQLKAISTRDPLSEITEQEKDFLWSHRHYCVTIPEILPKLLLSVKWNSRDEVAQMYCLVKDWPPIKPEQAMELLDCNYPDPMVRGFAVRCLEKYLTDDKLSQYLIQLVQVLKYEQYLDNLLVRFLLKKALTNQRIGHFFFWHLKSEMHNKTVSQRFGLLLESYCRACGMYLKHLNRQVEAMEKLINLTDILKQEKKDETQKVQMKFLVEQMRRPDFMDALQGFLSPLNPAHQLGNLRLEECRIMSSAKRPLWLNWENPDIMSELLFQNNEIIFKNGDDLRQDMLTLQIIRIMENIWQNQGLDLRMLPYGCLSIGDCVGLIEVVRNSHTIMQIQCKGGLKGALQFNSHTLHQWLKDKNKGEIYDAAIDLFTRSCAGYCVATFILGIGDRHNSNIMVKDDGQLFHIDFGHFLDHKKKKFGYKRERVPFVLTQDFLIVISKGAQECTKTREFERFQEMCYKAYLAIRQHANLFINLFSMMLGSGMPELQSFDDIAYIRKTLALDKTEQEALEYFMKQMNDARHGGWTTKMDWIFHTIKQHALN
Sequence (P27986 2-724 partner): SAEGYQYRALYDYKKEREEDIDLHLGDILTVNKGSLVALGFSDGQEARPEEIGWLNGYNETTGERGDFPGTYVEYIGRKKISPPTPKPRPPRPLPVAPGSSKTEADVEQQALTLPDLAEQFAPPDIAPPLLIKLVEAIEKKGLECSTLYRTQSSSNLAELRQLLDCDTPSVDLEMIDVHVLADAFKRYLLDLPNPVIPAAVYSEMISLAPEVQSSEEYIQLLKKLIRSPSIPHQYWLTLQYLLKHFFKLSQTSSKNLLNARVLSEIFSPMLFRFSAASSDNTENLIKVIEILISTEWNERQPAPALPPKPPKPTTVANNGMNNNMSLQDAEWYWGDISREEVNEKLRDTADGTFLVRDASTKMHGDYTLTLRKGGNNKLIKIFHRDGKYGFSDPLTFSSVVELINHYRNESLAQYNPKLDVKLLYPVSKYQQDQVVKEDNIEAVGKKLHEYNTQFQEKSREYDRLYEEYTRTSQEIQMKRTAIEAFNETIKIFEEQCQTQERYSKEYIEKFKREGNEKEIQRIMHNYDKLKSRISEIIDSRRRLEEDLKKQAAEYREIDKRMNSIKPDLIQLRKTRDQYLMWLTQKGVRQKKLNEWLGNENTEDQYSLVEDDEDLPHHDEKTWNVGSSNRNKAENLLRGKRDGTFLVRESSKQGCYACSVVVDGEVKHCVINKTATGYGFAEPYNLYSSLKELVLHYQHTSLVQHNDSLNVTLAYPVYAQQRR
experiment: PI3Kα H1047R enzyme assay (Transcreener ADP2 TR-FRET Red Assay)
conditions used: purified recombinant full-length protein; 2 hours pre-incubation with compound

# test smiles, IC50
records = [
    ("Cc1cc([C@@H](C)Nc2ccc(Cl)nc2C(=O)NS(C)(=O)=O)c2nc(N3C[C@@H]4C[C@H]3CO4)n(C)c(=O)c2c1", "500 to 1000 nM"),
    ("Cc1cc([C@@H](C)Nc2ccc(Cl)nc2C(=O)NS(=O)(=O)N(C)C)c2nc(N3Cc4ccc(F)cc4C3)n(C)c(=O)c2c1", "≥ 1000 nM"),
    ("Cc1cc([C@@H](C)Nc2ccc(Cl)nc2C(=O)NS(C)(=O)=O)c2nc(N3CCC4(CCOCC4)C3)n(C)c(=O)c2c1", "250 to 500 nM"),
    ("Cc1cc([C@@H](C)Nc2ccc(Cl)[nH]c2=O)c2nc(N3Cc4ccc(F)cc4C3)n(C)c(=O)c2c1", "≥ 1000 nM"),
    ("Cc1cc([C@@H](C)Nc2ccc(Cl)nc2C(=O)NS(C)(=O)=O)c2nc(N3CCC(F)(F)CC3)n(C)c(=O)c2c1", "≥ 1000 nM"),
    ("C[C@@H](Nc1ccc(Cl)nc1C(=O)NS(C)(=O)=O)c1cccc2c(=O)n(C)c(N3CCC(F)(F)CC3)nc12", "500 to 1000 nM"),
]
